Biological target: UniProt Q9H8M2
Sequence (Q9H8M2 136-240 limits assumed): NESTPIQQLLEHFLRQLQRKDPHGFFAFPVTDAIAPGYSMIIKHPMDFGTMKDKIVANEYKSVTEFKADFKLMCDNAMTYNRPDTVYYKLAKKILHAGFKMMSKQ
Assay: BROMOscan ligand-binding assay
Settings: KD, BRD9
Recorded Kd for the following compounds

1. O=C(C=CN1CC2CC1CN2c1ccccn1)c1ccccc1O (centres unmarked) [PFI-3]	> 0.1 mM

As a next step, examine the compound that follows.
Lookup: What Kd value was documented for this compound, O=C(O)c1ccccc1O [Salicylic Acid] ?
Found: > 14 mM

###

Collected inhibition at 10 µM values appear next to each entry.
Target: PRMT9 (Homo sapiens, UniProt Q6P2P2)
Construct: purchased DiscoverX BROMOscan (bromodomains); SGC in-house methyltransferase panel
Sequence (Q6P2P2 whole entry): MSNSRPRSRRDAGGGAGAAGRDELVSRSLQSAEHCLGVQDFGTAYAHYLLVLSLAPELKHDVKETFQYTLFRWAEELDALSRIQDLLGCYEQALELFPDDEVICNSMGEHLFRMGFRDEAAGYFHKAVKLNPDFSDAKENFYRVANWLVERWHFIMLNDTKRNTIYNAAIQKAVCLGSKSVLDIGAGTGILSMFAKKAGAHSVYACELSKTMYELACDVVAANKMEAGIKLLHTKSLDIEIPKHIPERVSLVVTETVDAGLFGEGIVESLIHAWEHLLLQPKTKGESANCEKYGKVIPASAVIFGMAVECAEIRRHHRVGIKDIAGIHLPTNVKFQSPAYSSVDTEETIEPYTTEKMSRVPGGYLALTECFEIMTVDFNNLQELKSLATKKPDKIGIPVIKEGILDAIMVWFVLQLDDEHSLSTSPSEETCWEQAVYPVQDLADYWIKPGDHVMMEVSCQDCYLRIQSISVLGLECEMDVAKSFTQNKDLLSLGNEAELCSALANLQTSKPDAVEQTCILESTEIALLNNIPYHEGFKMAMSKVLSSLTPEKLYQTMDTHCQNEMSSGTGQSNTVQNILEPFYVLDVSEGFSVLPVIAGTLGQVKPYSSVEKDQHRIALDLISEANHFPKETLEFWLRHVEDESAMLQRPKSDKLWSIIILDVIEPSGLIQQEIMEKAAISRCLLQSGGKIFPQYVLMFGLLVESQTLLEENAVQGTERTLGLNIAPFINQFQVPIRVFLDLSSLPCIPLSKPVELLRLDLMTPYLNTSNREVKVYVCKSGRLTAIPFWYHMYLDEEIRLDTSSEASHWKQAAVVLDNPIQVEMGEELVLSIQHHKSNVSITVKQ
Experiment: Methyl transferase scintillation proximity assay
Format: biochemical
Conditions: average of two measurements, read-out: MTases Inhibition (%)
Method: Assays measuring lysine and arginine methyl transferase activity have been described in Scheer et al.. A radioactivity-based scintillation proximity assay was used to monitor incorporation of a tritium-labeled methyl group into the biotinylated substrate of the methyl transferase. A 10-μl reaction containing ^3H-SAM and substrate at concentrations close to the apparent Km values for each enzyme was prepared. […] The counts per minute (CPM) was measured on a TopCount plate reader. […]
Give just the number in %; leave the unit off.

Recorded results for 2 molecules are shown here.
1) COc1cc(Cl)c(C(=O)N[C@@H](CN[C@H]2CC[C@@H](N)CC2)Cc2ccc(C#N)cc2)cc1-c1ccc(CN[C@H](C)c2ccc(C)cc2)o1	15
2) CN(C)CCCOc1ccc(-c2cc(NCCCn3cccn3)nc(S(C)(=O)=O)n2)cc1	7

// next item, inhibition at 10 µM requested
Lookup: Which inhibition at 10 µM reading was recorded for the molecule Cc1c(NC(=O)c2cc(C(N)=O)nc3cc(F)ccc23)c(C(F)(F)F)nn1Cc1ccc(C(C)(C)C)cc1 ?
Found: 3
